pIC50: −log10 of the molar value.
Literature roundup of UniProt P23458 data, read-out pIC50.

These solved cases illustrate the format of a correct answer.
CCNCc1cc(C(=O)N2CCC(N3CC(CC#N)(n4cc(-c5ncnc6[nH]ccc56)cn4)C3)CC2)nc(C(F)(F)F)n1; ≥ 8.30
N#CCCn1cc(-c2nc(-c3ccc(N4CCOCC4)cc3)cc3nccn23)cn1; 7.00 to 8.00
C[C@H](NC(=O)c1cnc(N2CC(CC#N)(n3cc(-c4ncnc5[nH]ccc45)cn3)C2)cn1)C(F)(F)F; > 8.00
COc1cc(-c2c[nH]c3c(NC(=O)CC#N)cccc23)cc(NC(=O)C2CC2)n1; < 6.00
Cn1cc(-c2cc3nccn3c(-c3cnn(C(CC#N)c4cccc(Cl)c4)c3)n2)cn1 (stereo not shown); 7.00 to 8.00

# query: pIC50 | item CN(c1ccccc1CNc1nc(-c2cc(F)c(O)cc2CC(F)(F)F)cc2[nH]nc(C(N)=O)c12)S(=O)(=O)c1cccnc1 | system: UniProt P23458
8.14
